Ref: patent US10882856B2

The entries below are paired with their reported pEC50.
test system: IDO1 (Homo sapiens)
Sequence (P14902 whole entry): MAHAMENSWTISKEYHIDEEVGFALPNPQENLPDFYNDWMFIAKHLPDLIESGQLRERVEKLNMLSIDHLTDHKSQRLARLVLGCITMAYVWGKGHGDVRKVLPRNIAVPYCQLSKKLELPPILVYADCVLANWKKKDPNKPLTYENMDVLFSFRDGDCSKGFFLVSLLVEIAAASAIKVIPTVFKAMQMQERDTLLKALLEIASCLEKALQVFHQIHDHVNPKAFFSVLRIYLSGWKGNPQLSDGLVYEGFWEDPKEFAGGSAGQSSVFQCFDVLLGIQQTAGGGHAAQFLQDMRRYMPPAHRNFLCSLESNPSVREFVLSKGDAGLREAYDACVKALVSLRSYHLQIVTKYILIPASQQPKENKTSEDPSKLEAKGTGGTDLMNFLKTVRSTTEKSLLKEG
procedure text: Hela cell-based IDO1 assay
condition notes: Hela cells
Worth noting: pEC50 values are minus log10 of concentrations stated in mol/L.

OCC(CCl)Oc1ccc(C2CCC(C(O)c3c(C4CC4)ccc4cncn34)CC2)cc1 (stereo not shown) | 7.14
OC(c1c(C2CC2)ccc2cncn12)[C@H]1CC[C@H](c2ccc(Cl)cc2F)CC1 (single isomer, unassigned) [Example D131a] | 6.56

Query compound follows.
Task: Determine its reported pEC50: OC(c1c(C2CC2)ccc2cncn12)C1CCC(c2cc(F)c(F)cc2F)CC1 (stereo not shown)
Output: 6.31

###

test system: IDO1 (Homo sapiens)
procedure text: Hela cell-based IDO1 assay
condition notes: Hela cells
result type: EC50 (nM)
Answer in nM, number only, no unit symbol.

Example entries and their recorded answers appear below.
CC(C)c1ccc2cncn2c1[C@H](O)[C@H]1CC[C@H](c2cccc(Cl)c2)CC1 (single isomer, unassigned) [Example D168b] | 6470
OC(c1c(C2CC2)ccc2cncn12)C1CCC(c2ccc3ccsc3c2)CC1 (stereo not drawn) | 364
OC(c1c(C2CC2)ccn2cncc12)C1CCN(c2ccc(F)c3cccnc23)CC1 (single isomer, unassigned) [Example C155b] | 40

Task: Determine its reported EC50: COc1ccc([C@H]2CC[C@H]([C@@H](O)c3c(C4CC4)ccc4cncn34)CC2)cc1 (single isomer, unassigned) [Example D102b]
Output: 6770

Task: Determine its reported EC50: O[C@H](c1cc(Cl)cc2cncn12)[C@H]1CC[C@H](c2ccc(Cl)cc2)CC1 (single isomer, unassigned) [Example E101a]
Output: 2530

Task: Determine its reported EC50: OC(c1c(C2CC2)ccn2cncc12)C1CCN(c2ccnc3ccccc23)CC1 (stereo not drawn)
Output: 1510

Task: Determine its reported EC50: OC(c1c(C2CC2)ccc2cncn12)[C@H]1CC[C@H](c2csc3ccccc32)CC1 (single isomer, unassigned) [Example D155a]
Output: 27

Task: Determine its reported EC50: CC(C)c1ccc2cncn2c1[C@H](O)[C@H]1CC[C@H](c2ccc(F)cc2)CC1 (single isomer, unassigned) [Example D166b]
Output: 5210

Task: Determine its reported EC50: OC(c1cc(Cl)cc2cncn12)C1CCC(c2cccc3ccccc23)CC1 (stereo not drawn)
Output: 2320

Task: Determine its reported EC50: O[C@H](c1c(C2CC2)ccc2cncn12)[C@H]1CC[C@H](c2ccc3sccc3c2)CC1 (single isomer, unassigned) [Example D133a]
Output: 220

Task: Determine its reported EC50: COCCOc1ccc(C2CCC(C(O)c3c(C4CC4)ccn4cncc34)CC2)cc1 (racemic)
Output: 95

Task: Determine its reported EC50: O[C@@H](c1c(C2CC2)ccc2cncn12)C1CCN(c2ccc(Cl)cc2)CC1 (single isomer, unassigned) [Example D174b]
Output: 5500

Task: Determine its reported EC50: OC(c1c(C2CC2)ccn2cncc12)C1CCN(c2ccc(F)cc2)CC1 (stereo not drawn) [Example C137]
Output: 177

Task: Determine its reported EC50: O[C@@H](c1c(C2CC2)ccc2cncn12)[C@H]1CC[C@@H](c2ccc(OC3CCOCC3)cc2)CC1 [Example D114a]
Output: 572

###

test system: IDO1 (Homo sapiens)
procedure text: Hela cell-based IDO1 assay
condition notes: Hela cells
The entries below are paired with their reported pEC50.
Worth noting: pEC50 values are minus log10 of concentrations stated in mol/L.

Oc1ccc(N2CCC(C(O)c3c(C4CC4)ccn4cncc34)CC2)cc1 (stereo not shown) | 5.96
O[C@H](c1c(C2CC2)ccc2cncn12)[C@H]1CC[C@H](c2ccc(F)cc2)CC1 (single isomer, unassigned) [Example D104a] | 7.64
OC(c1c(C2CC2)ccc2cncn12)C1CCN(c2ccc3nccc(Cl)c3c2)CC1 (stereo not shown) | 6.73

Task: Determine its reported pEC50: OC(c1c(C2CC2)ccn2cncc12)C1CCN(c2cccc(F)c2)CC1 (stereo not shown)
Output: 6.83

Task: Determine its reported pEC50: "NC(=O)Nc1ccc([C@H]2CC[C@H]([C@H](O)c3c(C4CC4)ccc4cncn34)CC2)cc1"
Output: 6.89
